// provenance: ChEMBL document CHEMBL1124325

- Measured on: Aromatase (Homo sapiens, UniProt P11511)
- Assay summary: Binding affinity(KI) for formation of reversible enzyme-ligand complex with human placental aromatase (PL2)
For each entry below, report its Ki value.
Enter your answer as a number in nM; do not include the unit.

Q: State the recorded Ki for this entry: C[C@]12CCC3C(CCC4=CC(=O)CC[C@@]43S)C1CCC2=O (stereo not given in full)
A: 28

Q: State the recorded Ki for this entry: C#CC[C@]12CCC(=O)C=C1CC[C@@H]1[C@@H]2CC[C@]2(C)C(=O)CC[C@@H]12 [PLOMESTANE]
A: 6.2

Q: State the recorded Ki for this entry: C[C@]12C[C@@H](S)C(=O)C=C1CCC1C2CC[C@]2(C)C(=O)CCC12 (stereo not given in full)
A: 3100

Q: State the recorded Ki for this entry: C[C@]12CCC(=O)C(O)=C1CC[C@@H]1[C@@H]2CC[C@]2(C)C(=O)CC[C@@H]12 [FORMESTANE]
A: 542

Q: State the recorded Ki for this entry: C[C@]12CCC3C(CCC4=CC(=O)CC[C@@]43S)C1CC[C@@H]2O (stereo not given in full)
A: 100

* * *

- Measured on: Aromatase (Homo sapiens, UniProt P11511)
- Assay summary: Catalytic constant (Kcat) for reversible enzyme-ligand complex formation with human placental aromatase (PL2)
Label yes when k cat < 0.003; otherwise no.

Q: Take the molecule C[C@]12C[C@@H](S)C(=O)C=C1CCC1C2CC[C@]2(C)C(=O)CCC12 (stereo partly specified) and say whether its k cat is less than 0.003.
A: yes

Q: Take the molecule C[C@]12CCC3C(CCC4=CC(=O)CC[C@@]43S)C1CCC2=O (stereo partly specified) and say whether its k cat is less than 0.003.
A: no

Q: Take the molecule C[C@]12CCC3C(CCC4=CC(=O)CC[C@@]43S)C1CC[C@@H]2O (stereo partly specified) and say whether its k cat is less than 0.003.
A: no

Q: Take the molecule C#CC[C@]12CCC(=O)C=C1CC[C@@H]1[C@@H]2CC[C@]2(C)C(=O)CC[C@@H]12 and say whether its k cat is less than 0.003.
A: yes

Q: Take the molecule C[C@]12CCC3C(CCC4=CC(=O)CC[C@@]43CS)C1CCC2=O (stereo partly specified) and say whether its k cat is less than 0.003.
A: yes

* * *

For each entry below, report its activity at 1 µM value.
- Measured on: UniProt:P11511
- Sequence (P11511 whole entry): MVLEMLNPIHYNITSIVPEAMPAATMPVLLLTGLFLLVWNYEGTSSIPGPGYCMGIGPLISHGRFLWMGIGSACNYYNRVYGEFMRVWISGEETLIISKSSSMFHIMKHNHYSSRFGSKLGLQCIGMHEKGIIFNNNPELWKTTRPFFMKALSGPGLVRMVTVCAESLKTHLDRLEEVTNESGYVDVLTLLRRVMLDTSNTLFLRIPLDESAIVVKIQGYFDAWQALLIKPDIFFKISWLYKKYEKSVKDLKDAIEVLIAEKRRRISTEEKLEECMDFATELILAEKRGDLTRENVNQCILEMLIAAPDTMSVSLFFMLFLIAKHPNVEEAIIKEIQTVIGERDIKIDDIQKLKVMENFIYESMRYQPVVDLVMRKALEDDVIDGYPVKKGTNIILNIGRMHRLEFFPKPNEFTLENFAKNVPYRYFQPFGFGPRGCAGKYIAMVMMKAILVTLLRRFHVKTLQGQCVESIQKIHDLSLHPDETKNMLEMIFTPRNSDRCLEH
- Assay summary: Dithiothreitol ([…]) reactivation of human placental aromatase following 1.0 uM inactivation for 5 minutes
- Condition set: read-out: Activity remaning
For clarity, give the value followed by its unit.

Q: State the recorded activity at 1 µM for this entry: C[C@]12CCC3C(CCC4=CC(=O)CC[C@@]43CS)C1CCC2=O (some centres not stated)
A: 60%

Q: State the recorded activity at 1 µM for this entry: C[C@]12CCC3C(CCC4=CC(=O)CC[C@@]43CS)C1CCC2=O.OC(CS)C(O)CS (some centres not stated)
A: 59%

Q: State the recorded activity at 1 µM for this entry: C[C@]12CCC(=O)C(O)=C1CCC1C2CC[C@]2(C)C(=O)CCC12.OC(CS)C(O)CS (some centres not stated)
A: 41%

Q: State the recorded activity at 1 µM for this entry: C[C@]12CCC(=O)C(O)=C1CC[C@@H]1[C@@H]2CC[C@]2(C)C(=O)CC[C@@H]12 [FORMESTANE]
A: 43%

Q: State the recorded activity at 1 µM for this entry: C[C@]12CCC3C(CCC4=CC(=O)CC[C@@]43S)C1CCC2=O.OC(CS)C(O)CS (some centres not stated)
A: 48%

Q: State the recorded activity at 1 µM for this entry: C[C@]12CCC3C(CCC4=CC(=O)CC[C@@]43S)C1CCC2=O (some centres not stated)
A: 50%

Q: State the recorded activity at 1 µM for this entry: OC(CS)C(O)CS (stereo not drawn) [DL-DITHIOTHREITOL]
A: 97%

* * *

- Measured on: UniProt:P11511
- Assay summary: Binding affinity constant for formation of reversible enzyme-ligand complex with human placental aromatase (PL1)
- Condition set: read-out: Ks
Label criterion met when Kd < 400 nM; otherwise criterion not met.

Q: Take the molecule C#CC[C@]12CCC(=O)C=C1CC[C@@H]1[C@@H]2CC[C@]2(C)C(=O)CC[C@@H]12 [PLOMESTANE] and say whether its Kd is less than 400 nM.
A: criterion met

Q: Take the molecule C[C@]12CCC(=O)C(O)=C1CC[C@@H]1[C@@H]2CC[C@]2(C)C(=O)CC[C@@H]12 [FORMESTANE] and say whether its Kd is less than 400 nM.
A: criterion met

Q: Take the molecule CC12CCC3C(CC=C4CC(=O)CCC43CO)C1CCC2=O (configuration not stated) and say whether its Kd is less than 400 nM.
A: criterion met

Q: Take the molecule C[C@]12CCC(=O)C=C1CC[C@@H]1[C@@H]2CC[C@]2(C)C(=O)CC[C@@H]12 [ANDROSTENEDIONE] and say whether its Kd is less than 400 nM.
A: criterion met

Q: Take the molecule C[C@]12CCC3C(CCC4=CC(=O)CC[C@@]43S)C1CC[C@@H]2O (some centres not stated) and say whether its Kd is less than 400 nM.
A: criterion not met

Q: Take the molecule C[C@]12C[C@@H](S)C(=O)C=C1CCC1C2CC[C@]2(C)C(=O)CCC12 (some centres not stated) and say whether its Kd is less than 400 nM.
A: criterion not met

Q: Take the molecule C[C@]12CCC3C(CCC4=CC(=O)CC[C@@]43S)C1CCC2=O (some centres not stated) and say whether its Kd is less than 400 nM.
A: criterion met

* * *

- Measured on: UniProt P11511
- Sequence (P11511 whole entry): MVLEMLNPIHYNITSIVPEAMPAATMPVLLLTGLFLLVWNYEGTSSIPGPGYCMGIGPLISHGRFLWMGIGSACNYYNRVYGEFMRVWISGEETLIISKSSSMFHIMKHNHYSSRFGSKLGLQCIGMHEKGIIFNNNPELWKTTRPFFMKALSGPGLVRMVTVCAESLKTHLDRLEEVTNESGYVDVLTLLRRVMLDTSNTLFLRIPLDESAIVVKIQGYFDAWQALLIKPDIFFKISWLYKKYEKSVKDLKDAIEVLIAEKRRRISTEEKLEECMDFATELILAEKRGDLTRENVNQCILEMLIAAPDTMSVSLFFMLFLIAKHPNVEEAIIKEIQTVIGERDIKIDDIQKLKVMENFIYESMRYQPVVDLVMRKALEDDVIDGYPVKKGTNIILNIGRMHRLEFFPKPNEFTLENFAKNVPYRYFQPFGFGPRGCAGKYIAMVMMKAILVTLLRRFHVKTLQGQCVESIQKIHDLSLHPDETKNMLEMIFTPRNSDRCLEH
- Assay summary: Maximum absorbance for formation of reversible-enzyme-ligand complexes with human placental aromatase (PL1)
For each entry below, report its Activity value.

Q: State the recorded Activity for this entry: C[C@]12CCC(=O)C(O)=C1CC[C@@H]1[C@@H]2CC[C@]2(C)C(=O)CC[C@@H]12
A: 0.162 Amax nM-1

Q: State the recorded Activity for this entry: C[C@]12CCC3C(CCC4=CC(=O)CC[C@@]43CS)C1CCC2=O (stereo not given in full)
A: 0.179 Amax nM-1

Q: State the recorded Activity for this entry: C#CC[C@]12CCC(=O)C=C1CC[C@@H]1[C@@H]2CC[C@]2(C)C(=O)CC[C@@H]12
A: 0.191 Amax nM-1

Q: State the recorded Activity for this entry: C[C@]12CCC3C(CCC4=CC(=O)CC[C@@]43S)C1CCC2=O (stereo not given in full)
A: 0.187 Amax nM-1

Q: State the recorded Activity for this entry: C[C@]12CC[C@H]3[C@@H](CCC4=CC(=O)CC[C@@]43C)[C@@H]1CC[C@@H]2O
A: 0.166 Amax nM-1
